Tgt: PD-L1 (Homo sapiens, UniProt Q9NZQ7)
Construct: hPDL1(19-239)-TVMV-His; made in house; host or cells: HEK293T
Sequence (Q9NZQ7 with tags, fused parts or gaps): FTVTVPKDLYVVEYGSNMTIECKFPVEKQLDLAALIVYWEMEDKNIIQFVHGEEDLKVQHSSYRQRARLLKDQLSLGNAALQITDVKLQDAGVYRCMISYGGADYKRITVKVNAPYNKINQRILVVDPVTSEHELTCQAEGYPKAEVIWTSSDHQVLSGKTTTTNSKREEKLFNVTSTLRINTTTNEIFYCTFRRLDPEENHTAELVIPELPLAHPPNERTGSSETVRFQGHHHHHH
Measurement Description: PD-1/PD-L1 Homogenous Time-Resolved Fluorescence (HTRF) binding assay (PD-1-Ig/PD-L1-His)
Assay Setup: inhibition of PD-1-Ig binding to PD-L1-TVMV-His; value given as range class; read-out: HTRF IC50
pIC50: −log10 of the molar value.
Readout Name: pIC50

Requested read-out pIC50, target or system PD-L1 (Homo sapiens, UniProt Q9NZQ7), entry `CCCC[C@H]1C(=O)N(C)[C@@H](CCCC)C(=O)N[C@@H](CCC(=O)O)C(=O)N[C@H](C(=O)NCC(=O)N[C@@H](Cc2cn(CC[C@H](NC(=O)CCCCCCCCCCCCCCCCC(=O)O)C(=O)O)nn2)C(=O)O)CSCC(=O)N[C@@H](Cc2ccc(O)cc2)C(=O)N(C)[C@@H](C)C(=O)N[C@@H](CC(=O)O)C(=O)N2CCC[C@H]2C(=O)N[C@@H](CN)C(=O)N[C@@H](CC(C)C)C(=O)N2C[C@H](O)C[C@H]2C(=O)N[C@@H](Cc2c[nH]c3ccccc23)C(=O)N[C@@H](CCN)C(=O)N[C@@H](Cc2cn(CC(=O)O)c3ccccc23)C(=O)N1C` 7.00 to 8.00

Param item: CCCC[C@H]1C(=O)N(C)[C@@H](CCCC)C(=O)N[C@@H](CCC(=O)O)C(=O)N[C@H](C(=O)N[C@@H](Cc2cn(CCC(NC(=O)CCCCCCCCCCCCCCCCC(=O)O)C(=O)O)nn2)C(=O)O)CSCC(=O)N[C@@H](Cc2ccc(O)cc2)C(=O)N(C)[C@@H](C)C(=O)N[C@@H](CC(N)=O)C(=O)N2CCC[C@H]2C(=O)N[C@@H](CN)C(=O)N[C@@H](CC(C)C)C(=O)N2C[C@H](O)C[C@H]2C(=O)N[C@@H](Cc2c[nH]c3ccccc23)C(=O)N[C@@H](CCN)C(=O)N[C@@H](Cc2cn(CC(=O)O)c3ccccc23)C(=O)N1C (stereo partly shown) 8.00 to 9.52

Param item: `CCCC[C@H]1C(=O)N(C)[C@@H](CCCC)C(=O)N[C@@H](CC(C)C)C(=O)N[C@H](C(=O)NCC(=O)N[C@@H](Cc2cn(CC[C@H](NC(=O)CCCCCCCCCCCCCCCCC(=O)O)C(=O)O)nn2)C(=O)O)CSCC(=O)N[C@@H](Cc2ccc(F)cc2)C(=O)N2CCCC[C@H]2C(=O)N[C@@H](CC(=O)O)C(=O)N2CCC[C@H]2C(=O)N[C@@H](CN)C(=O)N[C@@H](CC(C)C)C(=O)N2C[C@H](O)C[C@H]2C(=O)N[C@@H](Cc2c[nH]c3ccccc23)C(=O)N[C@@H](CCN)C(=O)N[C@@H](Cc2cn(CC(=O)O)c3ccccc23)C(=O)N1C` 7.00 to 8.00

Param item: `CCCC[C@H]1C(=O)N2C[C@H](O)C[C@@H]2C(=O)N[C@@H](CC(=O)O)C(=O)N[C@@H](C(C)C)C(=O)N(C)[C@@H](Cc2ccccc2)C(=O)N[C@@H](CC(=O)O)C(=O)N2CCC[C@@H]2C(=O)N[C@@H](Cc2c[nH]c3ccccc23)C(=O)N[C@@H](Cc2ccc(O)cc2)C(=O)N[C@@H](CC(C)C)C(=O)N[C@H](C(=O)NCC(=O)N[C@@H](Cc2cn(CC[C@H](NC(=O)CCCCCCCCCCCCCCC(=O)O)C(=O)O)nn2)C(N)=O)CSCC(=O)N[C@@H](Cc2cc(F)c(F)c(F)c2)C(=O)N(C)[C@@H](Cc2ccccc2)C(=O)N1C` 7.00 to 8.00
